System: SU-DHL-10-epst
ASSAY OVERVIEW: Combination study, ATPLite 72 h, dose matrix (Synergy Score, CI50)
RUN CONDITIONS: combination with Compound 1, 72 h
Counter-ions that a name gives are not always drawn.
MEASURE NAME: CI50 growth inhibition

Worked set:
COc1cccc2c1C(=O)c1c(O)c3c(c(O)c1C2=O)C[C@@](O)(C(=O)CO)C[C@@H]3O[C@H]1C[C@H](N)[C@H](O)[C@H](C)O1 [Doxorubicin HCl] : T (T=0.5 to <0.7)
CO[C@H]1C[C@@H]2CC[C@@H](C)[C@@](O)(O2)C(=O)C(=O)N2CCCC[C@H]2C(=O)O[C@H]([C@H](C)C[C@@H]2CC[C@@H](OCCO)[C@H](OC)C2)CC(=O)[C@H](C)/C=C(\C)[C@@H](O)[C@@H](OC)C(=O)[C@H](C)C[C@H](C)/C=C/C=C/C=C/1C : S (S=0.01 to <0.5)
Nc1ncn([C@@H]2O[C@H](CO)[C@@H](O)[C@H]2O)c(=O)n1 : S (S=0.01 to <0.5)
C[C@@H]1C[C@H]2[C@@H]3CCC4=CC(=O)C=C[C@]4(C)[C@@]3(F)[C@@H](O)C[C@]2(C)[C@@]1(O)C(=O)CO : S (S=0.01 to <0.5)
CN1CCc2c(c3ccccc3n2Cc2ccc(C(=O)NO)cc2)C1.Cl [Tubastatin A hydrochloride] : T (T=0.5 to <0.7)

Next molecule, CI50 growth inhibition to be filled in.
Prompt: Item under review: O=C(Nc1ccc2[nH]nc(-c3ccncc3)c2c1)[C@@H]1CCN(CC(=O)N2CCN(c3ccc(-c4ncccn4)cc3)CC2)C1 . Reported CI50 growth inhibition?
Response: T (T=0.5 to <0.7)

---

System: Farage
ASSAY OVERVIEW: Combination study, ATPLite 72 h, dose matrix (Synergy Score, CI50)
RUN CONDITIONS: combination with Compound 1; Farage; 72 h
Where a name gives a salt, the structure may show the parent alone.
MEASURE NAME: Synergy Score inhibition

Worked set:
COc1cccc2c1C(=O)c1c(O)c3c(c(O)c1C2=O)C[C@@](O)(C(=O)CO)C[C@@H]3O[C@H]1C[C@H](N)[C@H](O)[C@H](C)O1 [Doxorubicin HCl] : A1 (A1=0.0001 to <1)
CS(=O)(=O)N1CCN(Cc2cc3nc(-c4cccc5[nH]ncc45)nc(N4CCOCC4)c3s2)CC1 : A2 (A2=1 to <3)
Nc1cccc2c1CN(C1CCC(=O)NC1=O)C2=O (stereo not shown) [lenalidomide] : A1 (A1=0.0001 to <1)
CC(C)C[C@H](NC(=O)[C@H](CCc1ccccc1)NC(=O)CN1CCOCC1)C(=O)N[C@@H](Cc1ccccc1)C(=O)N[C@@H](CC(C)C)C(=O)[C@@]1(C)CO1 : A1 (A1=0.0001 to <1)
CCCCCCCCCCCCCCCCCCOP(=O)([O-])OC1CC[N+](C)(C)CC1 : A2 (A2=1 to <3)

Next compound, Synergy Score inhibition to be filled in.
Prompt: Item under review: CC(=O)Nc1cccc(-n2c(=O)n(C3CC3)c(=O)c3c(Nc4ccc(I)cc4F)n(C)c(=O)c(C)c32)c1 . Reported Synergy Score inhibition?
Response: A2 (A2=1 to <3)

---

System: U-2932
ASSAY OVERVIEW: Combination study, ATPLite 72 h, dose matrix (Synergy Score, CI50)
RUN CONDITIONS: combination with Compound 1, 72 h
Where a name gives a salt, the structure may show the parent alone.
MEASURE NAME: CI50 inhibition

COc1cccc2c1C(=O)c1c(O)c3c(c(O)c1C2=O)C[C@@](O)(C(=O)CO)C[C@@H]3O[C@H]1C[C@H](N)[C@H](O)[C@H](C)O1 [Doxorubicin HCl] : W (W=≥1)
CS(=O)(=O)N1CCN(Cc2cc3nc(-c4cccc5[nH]ncc45)nc(N4CCOCC4)c3s2)CC1 : W (W=≥1)
NC1(c2ccc(-c3nc4ccn5c(=O)[nH]nc5c4cc3-c3ccccc3)cc2)CCC1 : U (U=0.7 to <1)
CC(C)C[C@H](NC(=O)[C@H](CCc1ccccc1)NC(=O)CN1CCOCC1)C(=O)N[C@@H](Cc1ccccc1)C(=O)N[C@@H](CC(C)C)C(=O)[C@@]1(C)CO1 : U (U=0.7 to <1)

Next compound, CI50 inhibition to be filled in.
Prompt: Item under review: CCCCCCCCCCCCCCCCCCOP(=O)([O-])OC1CC[N+](C)(C)CC1 . Reported CI50 inhibition?
Response: W (W=≥1)

---

Tested on: HBL-1
ASSAY OVERVIEW: Combination study, ATPLite 72 h, dose matrix (Synergy Score, CI50)
RUN CONDITIONS: combination with Compound 1, 72 h
Structures can show the parent of a compound that is named as a salt.
MEASURE NAME: Synergy Score growth inhibition

Worked set:
COc1cccc2c1C(=O)c1c(O)c3c(c(O)c1C2=O)C[C@@](O)(C(=O)CO)C[C@@H]3O[C@H]1C[C@H](N)[C@H](O)[C@H](C)O1 [Doxorubicin HCl] : A3 (A3=>3)
Nc1cccc2c1CN(C1CCC(=O)NC1=O)C2=O (stereo not shown) [lenalidomide] : A1 (A1=0.0001 to <1)
NC1(c2ccc(-c3nc4ccn5c(=O)[nH]nc5c4cc3-c3ccccc3)cc2)CCC1 : A2 (A2=1 to <3)
CO[C@H]1C[C@@H]2CC[C@@H](C)[C@@](O)(O2)C(=O)C(=O)N2CCCC[C@H]2C(=O)O[C@H]([C@H](C)C[C@@H]2CC[C@@H](OCCO)[C@H](OC)C2)CC(=O)[C@H](C)/C=C(\C)[C@@H](O)[C@@H](OC)C(=O)[C@H](C)C[C@H](C)/C=C/C=C/C=C/1C : A2 (A2=1 to <3)
COc1ccc(-c2ccc3c(N4CCOC[C@@H]4C)nc(N4CCOC[C@@H]4C)nc3n2)cc1CO : A3 (A3=>3)

# map each compound to its Synergy Score growth inhibition
1. O=C(NOC[C@H](O)CO)c1ccc(F)c(F)c1Nc1ccc(I)cc1F
2. O=C(Nc1ccc2[nH]nc(-c3ccncc3)c2c1)[C@@H]1CCN(CC(=O)N2CCN(c3ccc(-c4ncccn4)cc3)CC2)C1
3. CCCCCCCCCCCCCCCCCCOP(=O)([O-])OC1CC[N+](C)(C)CC1
4. CS(=O)(=O)N1CCN(Cc2cc3nc(-c4cccc5[nH]ncc45)nc(N4CCOCC4)c3s2)CC1
5. CC(=O)Nc1cccc(-n2c(=O)n(C3CC3)c(=O)c3c(Nc4ccc(I)cc4F)n(C)c(=O)c(C)c32)c1
6. C[C@@H]1C[C@H]2[C@@H]3CCC4=CC(=O)C=C[C@]4(C)[C@@]3(F)[C@@H](O)C[C@]2(C)[C@@]1(O)C(=O)CO

Response:
1: A2 (A2=1 to <3); 2: A1 (A1=0.0001 to <1); 3: A3 (A3=>3); 4: A2 (A2=1 to <3); 5: A2 (A2=1 to <3); 6: A3 (A3=>3)

# map each compound to its Synergy Score growth inhibition
1. CN1CCc2c(c3ccccc3n2Cc2ccc(C(=O)NO)cc2)C1.Cl [Tubastatin A hydrochloride]
2. CC(C)C[C@H](NC(=O)[C@H](CCc1ccccc1)NC(=O)CN1CCOCC1)C(=O)N[C@@H](Cc1ccccc1)C(=O)N[C@@H](CC(C)C)C(=O)[C@@]1(C)CO1

Response:
1. A2 (A2=1 to <3)
2. A1 (A1=0.0001 to <1)

---

Tested on: U-2932
ASSAY OVERVIEW: Combination study, ATPLite 72 h, dose matrix (Synergy Score, CI50)
RUN CONDITIONS: combination with Compound 1, 72 h
MEASURE NAME: Synergy Score growth inhibition

O=C(NOC[C@H](O)CO)c1ccc(F)c(F)c1Nc1ccc(I)cc1F : A2 (A2=1 to <3)
CO[C@H]1C[C@@H]2CC[C@@H](C)[C@@](O)(O2)C(=O)C(=O)N2CCCC[C@H]2C(=O)O[C@H]([C@H](C)C[C@@H]2CC[C@@H](OCCO)[C@H](OC)C2)CC(=O)[C@H](C)/C=C(\C)[C@@H](O)[C@@H](OC)C(=O)[C@H](C)C[C@H](C)/C=C/C=C/C=C/1C : A2 (A2=1 to <3)

---

Tested on: SU-DHL-10-epst
ASSAY OVERVIEW: Combination study, ATPLite 72 h, dose matrix (Synergy Score, CI50)
RUN CONDITIONS: combination with Compound 1, 72 h
Counter-ions that a name gives are not always drawn.
MEASURE NAME: Synergy Score growth inhibition

Worked set:
O=C(NOC[C@H](O)CO)c1ccc(F)c(F)c1Nc1ccc(I)cc1F [PD0325901] : A3 (A3=>3)
O=C(Nc1ccc2[nH]nc(-c3ccncc3)c2c1)[C@@H]1CCN(CC(=O)N2CCN(c3ccc(-c4ncccn4)cc3)CC2)C1 [SCH772984] : A2 (A2=1 to <3)
C[C@@H]1C[C@H]2[C@@H]3CCC4=CC(=O)C=C[C@]4(C)[C@@]3(F)[C@@H](O)C[C@]2(C)[C@@]1(O)C(=O)CO [dexamethasone] : A3 (A3=>3)
CC(C)C[C@H](NC(=O)[C@H](CCc1ccccc1)NC(=O)CN1CCOCC1)C(=O)N[C@@H](Cc1ccccc1)C(=O)N[C@@H](CC(C)C)C(=O)[C@@]1(C)CO1 [carfilzomib] : A3 (A3=>3)
CO[C@H]1C[C@@H]2CC[C@@H](C)[C@@](O)(O2)C(=O)C(=O)N2CCCC[C@H]2C(=O)O[C@H]([C@H](C)C[C@@H]2CC[C@@H](OCCO)[C@H](OC)C2)CC(=O)[C@H](C)/C=C(\C)[C@@H](O)[C@@H](OC)C(=O)[C@H](C)C[C@H](C)/C=C/C=C/C=C/1C [everolimus] : A3 (A3=>3)
CC(=O)Nc1cccc(-n2c(=O)n(C3CC3)c(=O)c3c(Nc4ccc(I)cc4F)n(C)c(=O)c(C)c32)c1 [trametinib] : A3 (A3=>3)
CS(=O)(=O)N1CCN(Cc2cc3nc(-c4cccc5[nH]ncc45)nc(N4CCOCC4)c3s2)CC1 [GDC-0941] : A3 (A3=>3)
COc1cccc2c1C(=O)c1c(O)c3c(c(O)c1C2=O)C[C@@](O)(C(=O)CO)C[C@@H]3O[C@H]1C[C@H](N)[C@H](O)[C@H](C)O1 [Doxorubicin HCl] : A3 (A3=>3)

Next compound, Synergy Score growth inhibition to be filled in.
Prompt: Item under review: CCCCCCCCCCCCCCCCCCOP(=O)([O-])OC1CC[N+](C)(C)CC1 [perifosine] . Reported Synergy Score growth inhibition?
Response: A2 (A2=1 to <3)
